assay: Oral PK in the rat LPS studies (free plasma concentration); type: in vivo; details: plasma, po, p.o. 1.5 mg/kg, 5.5h, read-out: Free Plasma Conc

structure smiles | unit symbol | concentration at […]
C[C@H](NC(=O)c1c(N)nn2cccnc12)c1cc2cccc(C#Cc3cnn(C)c3)c2c(=O)n1-c1ccccc1 | nM | 5.4

----------
molecular target: PI3K-α in SKOV-3 cells (Homo sapiens (Human), UniProt P42336, H1047R); assay: PI3K-α selective cellular assay (phospho-AKT)
Sequence (P42336 whole entry H1047R): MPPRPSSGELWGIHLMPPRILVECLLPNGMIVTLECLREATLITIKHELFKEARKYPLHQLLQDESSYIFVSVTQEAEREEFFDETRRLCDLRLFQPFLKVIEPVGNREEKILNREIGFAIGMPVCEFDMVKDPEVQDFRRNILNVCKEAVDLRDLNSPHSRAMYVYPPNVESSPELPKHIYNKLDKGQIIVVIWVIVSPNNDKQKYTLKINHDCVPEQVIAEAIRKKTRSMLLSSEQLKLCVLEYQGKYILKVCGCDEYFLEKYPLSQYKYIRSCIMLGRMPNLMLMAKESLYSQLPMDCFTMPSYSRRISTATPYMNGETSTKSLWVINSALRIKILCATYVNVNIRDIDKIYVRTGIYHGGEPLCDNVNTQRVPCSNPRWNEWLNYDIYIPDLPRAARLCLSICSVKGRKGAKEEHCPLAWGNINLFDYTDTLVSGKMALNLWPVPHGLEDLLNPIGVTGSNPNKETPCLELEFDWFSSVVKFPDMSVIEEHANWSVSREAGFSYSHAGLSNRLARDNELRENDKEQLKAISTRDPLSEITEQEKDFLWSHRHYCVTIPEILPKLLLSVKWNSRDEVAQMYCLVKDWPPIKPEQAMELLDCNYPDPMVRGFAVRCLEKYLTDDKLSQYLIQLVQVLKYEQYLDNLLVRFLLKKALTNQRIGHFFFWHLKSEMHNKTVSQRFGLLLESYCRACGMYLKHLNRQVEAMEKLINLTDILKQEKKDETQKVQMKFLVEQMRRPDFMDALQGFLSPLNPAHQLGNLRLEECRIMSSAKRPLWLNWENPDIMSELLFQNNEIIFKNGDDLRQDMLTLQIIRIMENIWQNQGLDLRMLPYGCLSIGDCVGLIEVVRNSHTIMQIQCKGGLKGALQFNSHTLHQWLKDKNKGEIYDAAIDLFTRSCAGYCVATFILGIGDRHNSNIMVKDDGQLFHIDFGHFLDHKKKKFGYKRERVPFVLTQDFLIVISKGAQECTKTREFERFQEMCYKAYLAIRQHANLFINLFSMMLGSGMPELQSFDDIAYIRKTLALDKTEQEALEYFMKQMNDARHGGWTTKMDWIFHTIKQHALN
Sequence (P27986 whole entry partner): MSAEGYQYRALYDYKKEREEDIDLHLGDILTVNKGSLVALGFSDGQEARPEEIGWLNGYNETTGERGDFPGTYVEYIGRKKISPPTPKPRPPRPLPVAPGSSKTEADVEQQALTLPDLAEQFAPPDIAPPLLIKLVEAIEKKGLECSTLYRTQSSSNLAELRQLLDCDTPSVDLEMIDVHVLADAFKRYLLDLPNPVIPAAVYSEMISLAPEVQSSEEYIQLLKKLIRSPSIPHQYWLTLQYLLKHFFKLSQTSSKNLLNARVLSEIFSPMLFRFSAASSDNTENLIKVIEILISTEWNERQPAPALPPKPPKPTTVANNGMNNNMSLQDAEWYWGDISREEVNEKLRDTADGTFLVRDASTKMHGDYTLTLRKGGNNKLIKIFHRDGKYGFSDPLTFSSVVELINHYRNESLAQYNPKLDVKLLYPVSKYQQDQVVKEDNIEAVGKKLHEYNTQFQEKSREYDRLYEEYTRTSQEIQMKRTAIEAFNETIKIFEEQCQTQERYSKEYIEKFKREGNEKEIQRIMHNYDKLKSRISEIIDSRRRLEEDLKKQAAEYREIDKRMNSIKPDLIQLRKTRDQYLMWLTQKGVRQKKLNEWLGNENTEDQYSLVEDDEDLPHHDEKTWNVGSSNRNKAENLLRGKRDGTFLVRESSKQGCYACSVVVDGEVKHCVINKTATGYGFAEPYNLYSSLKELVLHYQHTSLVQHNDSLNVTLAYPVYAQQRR
pIC50: −log10 of the molar value.
measured metric: pIC50

molecule | measured metric | observed value
CC(C)n1c([C@H](C)Nc2ncnc(N)c2C#N)cc2cccc(-c3ccc(=O)n(C)c3)c2c1=O [Compound AA, reference compound] | pIC50 | 5.72

----------
target: PI3K-γ in RAW264.7 macrophages (Mus musculus (Mouse), UniProt Q9JHG7); assay: Raw264.7 p110 γ assay (PI3K-γ selective cellular assay, C5a-stimulated phospho-AKT); type: cell-based
Sequence (Q9JHG7 whole entry): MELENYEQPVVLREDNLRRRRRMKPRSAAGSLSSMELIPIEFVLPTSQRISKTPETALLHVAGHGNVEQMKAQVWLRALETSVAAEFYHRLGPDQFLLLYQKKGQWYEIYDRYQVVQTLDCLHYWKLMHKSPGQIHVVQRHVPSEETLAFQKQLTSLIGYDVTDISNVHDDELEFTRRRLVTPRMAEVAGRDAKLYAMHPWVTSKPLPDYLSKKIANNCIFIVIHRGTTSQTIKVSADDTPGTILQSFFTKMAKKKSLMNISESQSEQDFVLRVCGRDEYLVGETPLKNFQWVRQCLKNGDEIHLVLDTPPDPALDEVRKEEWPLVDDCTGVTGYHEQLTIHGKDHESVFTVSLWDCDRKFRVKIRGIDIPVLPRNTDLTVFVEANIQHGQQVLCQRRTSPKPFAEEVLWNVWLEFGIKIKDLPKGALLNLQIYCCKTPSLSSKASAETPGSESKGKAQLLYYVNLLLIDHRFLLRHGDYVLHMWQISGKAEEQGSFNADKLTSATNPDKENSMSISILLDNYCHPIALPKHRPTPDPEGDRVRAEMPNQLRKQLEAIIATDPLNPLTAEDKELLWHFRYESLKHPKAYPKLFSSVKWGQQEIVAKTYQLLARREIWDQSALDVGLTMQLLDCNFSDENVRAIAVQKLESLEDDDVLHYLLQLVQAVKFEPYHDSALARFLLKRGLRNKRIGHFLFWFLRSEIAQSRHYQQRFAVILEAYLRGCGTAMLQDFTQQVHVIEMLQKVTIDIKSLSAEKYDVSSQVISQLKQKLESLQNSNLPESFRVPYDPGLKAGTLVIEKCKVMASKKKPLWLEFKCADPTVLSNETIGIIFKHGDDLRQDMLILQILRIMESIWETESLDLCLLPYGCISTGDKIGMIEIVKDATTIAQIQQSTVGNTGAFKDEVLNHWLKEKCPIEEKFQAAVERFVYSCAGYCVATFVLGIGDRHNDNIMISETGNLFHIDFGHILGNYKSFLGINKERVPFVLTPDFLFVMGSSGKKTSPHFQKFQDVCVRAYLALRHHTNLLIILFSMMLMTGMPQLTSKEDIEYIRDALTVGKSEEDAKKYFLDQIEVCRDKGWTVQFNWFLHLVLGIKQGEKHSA
measured metric: RAJIδ/Raw264.7 γ IC50 (selectivity)

compound | measured metric | observed value
C[C@H](NC(=O)c1c(N)nn2cccnc12)c1cc2cccc(C#Cc3cc[nH]c(=O)c3)c2c(=O)n1-c1ccccc1 [Compound 31] | RAJIδ/Raw264.7 γ IC50 (selectivity) | W (W = >1 to <10)
C[C@H](NC(=O)c1c(N)nn2cccnc12)c1cc2cccc(C#CC3CCNCC3)c2c(=O)n1-c1ccccc1 [Compound 72] | RAJIδ/Raw264.7 γ IC50 (selectivity) | W (W = >1 to <10)
C[C@H](NC(=O)c1c(N)nn2cccnc12)c1cc2cccc(C#CC3CCCCC3)c2c(=O)n1-c1ccccc1 [Compound 65] | RAJIδ/Raw264.7 γ IC50 (selectivity) | X (X = 10 to <50)
C[C@H](NC(=O)c1c(N)nn2cccnc12)c1cc2cccc(C#CCN(C)C)c2c(=O)n1-c1ccccc1 [Compound 57] | RAJIδ/Raw264.7 γ IC50 (selectivity) | W (W = >1 to <10)
C[C@H](O)C#Cc1cccc2cc([C@H](C)NC(=O)c3c(N)nn4cccnc34)n(-c3ccccc3)c(=O)c12 [Compound 16] | RAJIδ/Raw264.7 γ IC50 (selectivity) | X (X = 10 to <50)
C/C=C/c1cccc2cc([C@H](C)NC(=O)c3c(N)nn4cccnc34)n(-c3ccccc3)c(=O)c12 [Compound 70] | RAJIδ/Raw264.7 γ IC50 (selectivity) | X (X = 10 to <50)

----------
biological target: PI3K δ (Homo sapiens (Human))
Sequence (O00329 whole entry): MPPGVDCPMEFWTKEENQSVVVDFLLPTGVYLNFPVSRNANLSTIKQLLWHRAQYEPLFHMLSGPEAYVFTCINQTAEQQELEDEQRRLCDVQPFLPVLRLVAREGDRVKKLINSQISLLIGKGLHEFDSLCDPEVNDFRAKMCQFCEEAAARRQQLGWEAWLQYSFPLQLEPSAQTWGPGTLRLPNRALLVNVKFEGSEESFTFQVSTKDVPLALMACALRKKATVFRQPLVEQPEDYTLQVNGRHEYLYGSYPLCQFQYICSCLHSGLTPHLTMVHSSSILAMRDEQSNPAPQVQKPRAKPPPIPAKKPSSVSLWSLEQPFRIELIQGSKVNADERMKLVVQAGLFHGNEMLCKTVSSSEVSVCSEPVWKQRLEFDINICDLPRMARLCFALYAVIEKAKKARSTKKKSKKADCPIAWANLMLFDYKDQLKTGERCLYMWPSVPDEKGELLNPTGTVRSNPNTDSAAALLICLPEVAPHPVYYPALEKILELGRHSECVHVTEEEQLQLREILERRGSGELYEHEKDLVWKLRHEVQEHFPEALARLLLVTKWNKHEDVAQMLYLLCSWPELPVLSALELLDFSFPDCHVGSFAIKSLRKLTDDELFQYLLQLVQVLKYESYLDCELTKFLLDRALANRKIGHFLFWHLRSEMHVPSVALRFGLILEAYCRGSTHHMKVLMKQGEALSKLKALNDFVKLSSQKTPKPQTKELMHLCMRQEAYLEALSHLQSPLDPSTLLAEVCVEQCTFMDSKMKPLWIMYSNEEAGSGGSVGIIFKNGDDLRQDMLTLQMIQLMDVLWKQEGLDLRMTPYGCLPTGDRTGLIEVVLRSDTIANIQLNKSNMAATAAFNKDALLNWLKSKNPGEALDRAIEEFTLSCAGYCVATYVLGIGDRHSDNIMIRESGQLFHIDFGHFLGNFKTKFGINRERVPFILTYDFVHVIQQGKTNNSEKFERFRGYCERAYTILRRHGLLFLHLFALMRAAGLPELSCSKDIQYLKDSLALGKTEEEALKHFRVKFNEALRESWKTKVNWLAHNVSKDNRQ
Sequence (P27986 whole entry partner): as the sequence (P27986 whole entry partner) above
Entries annotated with measured IC50

structure smiles | target or system | IC50
C[C@H](NC(=O)c1c(N)nn2cccnc12)c1cc2cccc(C#Cc3cnn(C)c3)c2c(=O)n1-c1ccc(F)cc1 | PI3K δ (Homo sapiens (Human)) | 5 to 10 µM
C[C@H](NC(=O)c1c(N)nn2cccnc12)c1cc2cccc(C#CC=O)c2c(=O)n1-c1ccccc1 | PI3K δ (Homo sapiens (Human)) | 1 to 5 µM
Cc1nn(C)c(C)c1C#Cc1cccc2cc([C@H](C)NC(=O)c3c(N)nn4cccnc34)n(-c3ccccc3)c(=O)c12 | PI3K δ (Homo sapiens (Human)) | 5 to 10 µM
C[C@H](NC(=O)c1c(N)nn2cccnc12)c1cc2cccc(C#Cc3cscn3)c2c(=O)n1-c1ccccc1 | PI3K δ (Homo sapiens (Human)) | 1 to 5 µM

----------
test: Hepatocyte stability (Hep t1/2); assay type: in vitro ADME; details: hepatocytes, all species (incl rat); read-out: M, C, D, H Hep (t1/2, min)

compound | half-life
C[C@H](NC(=O)c1c(N)nn2cccnc12)c1cc2cccc(C#Cc3cnn(C)c3)c2c(=O)n1-c1ccccc1 [Compound BB] | > 240 min

----------
Entries annotated with measured pIC50
biological target: PI3K γ (Homo sapiens (Human))
Sequence (P48736 whole entry): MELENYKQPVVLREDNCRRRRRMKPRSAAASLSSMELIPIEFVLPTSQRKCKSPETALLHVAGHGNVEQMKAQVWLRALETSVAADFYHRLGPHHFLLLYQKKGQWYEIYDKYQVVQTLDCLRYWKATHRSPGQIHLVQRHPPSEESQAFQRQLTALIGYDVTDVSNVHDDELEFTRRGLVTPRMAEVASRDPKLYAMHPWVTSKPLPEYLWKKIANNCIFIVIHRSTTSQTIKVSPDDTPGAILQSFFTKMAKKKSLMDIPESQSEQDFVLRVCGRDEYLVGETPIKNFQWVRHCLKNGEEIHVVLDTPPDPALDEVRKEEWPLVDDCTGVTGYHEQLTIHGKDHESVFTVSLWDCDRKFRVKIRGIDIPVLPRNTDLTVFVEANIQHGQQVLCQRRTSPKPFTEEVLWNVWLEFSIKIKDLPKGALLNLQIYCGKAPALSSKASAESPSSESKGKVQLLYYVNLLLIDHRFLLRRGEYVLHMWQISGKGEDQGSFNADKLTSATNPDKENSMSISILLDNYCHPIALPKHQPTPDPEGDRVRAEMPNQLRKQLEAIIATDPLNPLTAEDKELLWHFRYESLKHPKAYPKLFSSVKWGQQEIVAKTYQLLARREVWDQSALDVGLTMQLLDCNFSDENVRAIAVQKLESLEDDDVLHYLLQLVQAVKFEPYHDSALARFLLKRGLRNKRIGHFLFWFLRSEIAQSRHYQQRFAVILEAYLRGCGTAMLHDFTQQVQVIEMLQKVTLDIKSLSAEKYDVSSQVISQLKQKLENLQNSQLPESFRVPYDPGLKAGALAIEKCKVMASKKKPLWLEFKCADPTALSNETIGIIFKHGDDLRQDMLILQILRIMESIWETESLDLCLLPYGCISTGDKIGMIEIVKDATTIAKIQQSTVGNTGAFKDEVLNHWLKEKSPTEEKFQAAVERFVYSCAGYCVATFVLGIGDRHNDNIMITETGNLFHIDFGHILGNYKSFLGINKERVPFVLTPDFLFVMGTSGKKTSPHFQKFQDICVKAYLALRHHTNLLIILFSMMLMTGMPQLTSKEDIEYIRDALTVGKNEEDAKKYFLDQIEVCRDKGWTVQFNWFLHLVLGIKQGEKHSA
pIC50: −log10 of the molar value.
measured metric: pIC50

structure smiles | observed value
CC(C)C#Cc1cccc2cc([C@H](C)NC(=O)c3c(N)nn4cccnc34)n(-c3ccccc3)c(=O)c12 | 6.00 to 6.30
C[C@H](NC(=O)c1c(N)nn2cccnc12)c1cc2cccc(/C=C/c3ccccc3)c2c(=O)n1-c1ccccc1 | < 5.30
COc1cc(C#Cc2cccc3cc([C@H](C)NC(=O)c4c(N)nn5cccnc45)n(-c4ccccc4)c(=O)c23)ccn1 | 5.30 to 6.00
CC(C)n1c([C@H](C)NC(=O)c2c(N)nn3cccnc23)cc2cccc(C#Cc3cnn(C)c3)c2c1=O | 6.00 to 6.30
C[C@H](NC(=O)c1c(N)nn2cccnc12)c1cc2cccc(CC(=O)c3cnn(C)c3)c2c(=O)n1-c1ccccc1 | 6.00 to 6.30
C[C@H](NC(=O)c1c(N)nn2cccnc12)c1cc2cccc(C#CC(C)(C)C)c2c(=O)n1-c1ccccc1 | 5.30 to 6.00
Cc1nc(C#Cc2cccc3nc([C@H](C)NC(=O)c4c(N)nn5cccnc45)n(-c4ccccc4)c(=O)c23)cs1 | 7.00 to 9.00

----------
target: PI3K-γ in RAW264.7 macrophages (Mus musculus (Mouse), UniProt Q9JHG7); assay: Raw264.7 p110 γ assay (PI3K-γ selective cellular assay, C5a-stimulated phospho-AKT); assay type: cell-based; conditions: phospho-AKT; read-out: Raw264.7 p110 γ assay IC50
measured metric: IC50

compound | observed value
C[C@H](NC(=O)c1c(N)nn2cccnc12)c1cc2cccc(C#Cc3cncn3C)c2c(=O)n1-c1ccccc1 [Compound 7] | 1 to 50 nM
C[C@H](NC(=O)c1c(N)nn2cccnc12)c1cc2cccc(C#Cc3cnn(C)c3)c2c(=O)n1C1CC1 [Compound 25] | 1 to 50 nM
C[C@H](NC(=O)c1c(N)nn2cccnc12)c1cc2cccc(C#CC3CC3)c2c(=O)n1-c1ccccc1 [Compound 9] | 1 to 50 nM
C[C@H](NC(=O)c1c(N)nn2cccnc12)c1cc2cccc(C#Cc3ccncc3)c2c(=O)n1-c1ccccc1 [Compound 26] | 1 to 50 nM
C[C@H](NC(=O)c1c(N)nn2cccnc12)c1cc2cccc(C#Cc3ccn(C)n3)c2c(=O)n1-c1ccccc1 [Compound 30] | 1 to 50 nM
C[C@H](NC(=O)c1c(N)nn2cccnc12)c1cc2cccc(C#CC3CNC3)c2c(=O)n1-c1ccccc1 [Compound 74] | 100 to 10000 nM
C[C@H](NC(=O)c1c(N)nn2cccnc12)c1cc2cccc(C#Cc3ccccn3)c2c(=O)n1-c1ccccc1 [Compound 32] | 1 to 50 nM

----------
target: PI3K-γ in RAW264.7 macrophages (Mus musculus (Mouse), UniProt Q9JHG7); experiment: Raw264.7 p110 γ assay (PI3K-γ selective cellular assay, C5a-stimulated phospho-AKT); assay type: cell-based

compound | RAJIδ/Raw264.7 γ IC50 (selectivity)
C#Cc1cccc2nc([C@H](C)NC(=O)c3c(N)nn4cccnc34)n(C)c(=O)c12 [Compound 48] | V (V = 0.1 to 1)
C[C@H](NC(=O)c1c(N)nn2cccnc12)c1cc2cccc(C#CC3CC3)c2c(=O)n1-c1ccccc1 [Compound 9] | Y (Y = 50 to <850)
C[C@H](NC(=O)c1c(N)nn2cccnc12)c1cc2cccc(C#CC(F)(F)F)c2c(=O)n1-c1ccccc1 [Compound 58] | V (V = 0.1 to 1)
Cc1nc(C)c(C#Cc2cccc3cc([C@H](C)NC(=O)c4c(N)nn5cccnc45)n(-c4ccccc4)c(=O)c23)s1 [Compound 79] | Y (Y = 50 to <850)
Cc1ncsc1C#Cc1cccc2cc([C@H](C)NC(=O)c3c(N)nn4cccnc34)n(-c3ccccc3)c(=O)c12 [Compound 75] | Y (Y = 50 to <850)
COc1cc(C#Cc2cccc3cc([C@H](C)NC(=O)c4c(N)nn5cccnc45)n(-c4ccccc4)c(=O)c23)ccn1 [Compound 28] | X (X = 10 to <50)
C[C@H](NC(=O)c1c(N)nn2cccnc12)c1cc2cccc(C#Cc3cscn3)c2c(=O)n1-c1ccccc1 [Compound 54] | W (W = >1 to <10)
Cc1cnc(C(=O)N[C@@H](C)c2cc3cccc(C#Cc4cnn(C)c4)c3c(=O)n2-c2ccccc2)c(N)n1 [Compound 68] | W (W = >1 to <10)
C[C@H](NC(=O)c1c(N)nn2cccnc12)c1cc2cccc(C#CC3CCOC3)c2c(=O)n1-c1ccccc1 (stereo partly shown) [Compound 84] | X (X = 10 to <50)
C[C@H](NC(=O)c1c(N)nn2cccnc12)c1cc2cccc(C#Cc3cncn3C)c2c(=O)n1C1CC1 [Compound 23] | W (W = >1 to <10)
Cc1nn(C)cc1C#Cc1cccc2cc([C@H](C)NC(=O)c3c(N)nn4cccnc34)n(-c3ccccc3)c(=O)c12 [Compound 19] | Y (Y = 50 to <850)
Cc1nc(C#Cc2cccc3cc([C@H](C)NC(=O)c4c(N)nn5cccnc45)n(-c4ccccc4)c(=O)c23)cs1 [Compound 40] | Y (Y = 50 to <850)
COC(C)C#Cc1cccc2cc([C@H](C)NC(=O)c3c(N)nn4cccnc34)n(-c3ccccc3)c(=O)c12 (stereo partly shown) [Compound 22] | X (X = 10 to <50)
C[C@H](NC(=O)c1c(N)nn2cccnc12)c1cc2cccc(C#C[C@@H](C)O)c2c(=O)n1-c1ccccc1 [Compound 15] | W (W = >1 to <10)
C[C@H](NC(=O)c1c(N)nn2cccnc12)c1cc2cccc(C#CC3CCCC3)c2c(=O)n1-c1ccccc1 [Compound 64] | X (X = 10 to <50)
C[C@H](NC(=O)c1c(N)nn2cccnc12)c1cc2ccc3ccccc3c2c(=O)n1-c1ccccc1 [Compound 89] | Y (Y = 50 to <850)
CC#Cc1cccc2nc([C@H](C)NC(=O)c3c(N)nn4cccnc34)n(-c3ccccc3)c(=O)c12 [Compound 1] | X (X = 10 to <50)
Cc1ncc(C#Cc2cccc3cc([C@H](C)NC(=O)c4c(N)nn5cccnc45)n(-c4ccccc4)c(=O)c23)s1 [Compound 76] | X (X = 10 to <50)
